# target-or-test-system: Hexokinase-4 (Homo sapiens) + Glucokinase regulatory protein (Homo sapiens) (UniProt P35557+Q14397)
# Sequence (P35557 whole entry, looked up): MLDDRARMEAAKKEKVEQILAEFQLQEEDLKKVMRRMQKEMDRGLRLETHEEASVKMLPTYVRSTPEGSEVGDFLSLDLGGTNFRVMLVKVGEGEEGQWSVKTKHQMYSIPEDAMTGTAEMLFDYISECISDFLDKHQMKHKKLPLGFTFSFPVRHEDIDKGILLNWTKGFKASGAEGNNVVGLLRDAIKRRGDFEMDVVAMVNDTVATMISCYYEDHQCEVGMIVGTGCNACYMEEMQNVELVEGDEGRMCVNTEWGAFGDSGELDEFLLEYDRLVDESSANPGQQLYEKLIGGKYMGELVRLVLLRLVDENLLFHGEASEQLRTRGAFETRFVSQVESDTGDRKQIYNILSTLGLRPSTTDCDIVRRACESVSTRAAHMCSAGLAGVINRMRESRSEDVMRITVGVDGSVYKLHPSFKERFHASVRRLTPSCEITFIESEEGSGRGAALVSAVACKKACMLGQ
# Sequence (Q14397 whole entry, looked up): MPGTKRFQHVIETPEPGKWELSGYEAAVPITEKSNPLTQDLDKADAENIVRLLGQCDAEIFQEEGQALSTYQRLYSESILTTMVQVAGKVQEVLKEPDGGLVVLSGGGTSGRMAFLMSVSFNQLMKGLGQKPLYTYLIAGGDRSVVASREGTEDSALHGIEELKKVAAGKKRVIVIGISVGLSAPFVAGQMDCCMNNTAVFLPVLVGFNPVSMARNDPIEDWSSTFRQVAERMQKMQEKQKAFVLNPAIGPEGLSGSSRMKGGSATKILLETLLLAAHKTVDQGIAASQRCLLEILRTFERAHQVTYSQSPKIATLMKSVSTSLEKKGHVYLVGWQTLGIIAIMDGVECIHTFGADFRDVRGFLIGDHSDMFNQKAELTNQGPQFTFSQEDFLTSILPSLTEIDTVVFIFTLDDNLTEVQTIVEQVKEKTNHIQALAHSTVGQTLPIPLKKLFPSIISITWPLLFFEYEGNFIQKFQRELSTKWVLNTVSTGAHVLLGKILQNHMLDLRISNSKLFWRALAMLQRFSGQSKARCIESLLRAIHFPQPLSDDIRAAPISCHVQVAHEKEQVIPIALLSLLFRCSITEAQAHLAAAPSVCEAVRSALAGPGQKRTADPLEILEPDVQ
# protocol: qHTS assay for inhibitors of recombinant human GCK-GKRP interaction: HTRF assay (AID 743207)
# run-conditions: recombinant GCK-GKRP HTRF binding, 60 min, with sorbitol-6-phosphate; series mostly up to 57.5 µM
Active and inactive are the calls of the source. The call rests on the fitted dose curve; in most records, active means well fitted curve in the direction sought with a large enough effect; inconclusive means small, poorly fitted or top-dose-only effect, or another doubt; inactive means no such curve, though single readings can be large or run the other way.
parameter-measured: outcome

[[record]]
molecule = "Cc1nc(N=Nc2ccc(S(=O)(=O)O)cc2S(=O)(=O)O)c(COP(=O)(O)O)c(C=O)c1O"
result = "inactive"

[[record]]
molecule = "CCCn1c(=O)c(C)cn2nc(N)nc12"
result = "inactive"

[[record]]
molecule = "CN(C)CCC(c1ccc(Br)cc1)c1ccccn1 (stereo unspecified)"
result = "inactive"

[[record]]
molecule = "Nc1ncnc2c1ncn2C1CCCO1 (stereo unspecified)"
result = "inactive"


stdin: Output measured outcome for this item: C[N+](C)(C)CC=O
stdout: inactive
